These entries and their values trace back to patent US12686690B2.

Target: hOX2R (Homo sapiens, UniProt O43614)
Sequence (O43614 1-444): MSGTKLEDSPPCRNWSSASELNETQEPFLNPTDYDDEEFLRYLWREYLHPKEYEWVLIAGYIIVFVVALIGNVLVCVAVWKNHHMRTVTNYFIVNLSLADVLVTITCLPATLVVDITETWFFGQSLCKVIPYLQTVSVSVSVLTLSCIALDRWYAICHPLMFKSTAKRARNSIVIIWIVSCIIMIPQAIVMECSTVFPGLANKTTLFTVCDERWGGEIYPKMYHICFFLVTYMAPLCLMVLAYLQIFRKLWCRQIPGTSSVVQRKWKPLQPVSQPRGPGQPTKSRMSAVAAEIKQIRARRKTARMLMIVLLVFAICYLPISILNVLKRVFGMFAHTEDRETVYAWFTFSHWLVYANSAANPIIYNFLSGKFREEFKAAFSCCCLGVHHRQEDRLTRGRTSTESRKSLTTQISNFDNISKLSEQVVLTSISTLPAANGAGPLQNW
Test: hOX2R IPone assay (orexin receptor agonism)
Conditions: orexin receptor agonist, IPone readout; read-out: hOX2R_IPone EC50
pEC50: −log10 of the molar value.
Outcome label depends on pEC50 relative to 8: at/above gives rule met, below gives rule not met.

Past entries and their recorded results:
CCN1C(=O)NCCCCOc2nc(cn3ccnc23)-c2cc(ncc2OC)[C@H]1C [Example 178]: rule not met
CCN1C(=O)NC(C(C)OC)CCCCCOc2nc(cn3ccnc23)-c2cc(ncc2OC)[C@H]1C (some centres unmarked) [Example 191]: rule met
CCN1C(=O)N[C@@H](CCC(F)(F)F)CCCCCOc2nc(cn3ccnc23)-c2ccnc(c2)[C@@H]1C [Example 30]: rule not met
CCN1C(=O)NCCCCCCOc2nc(cn3ccnc23)-c2cc(ncc2OC)[C@H]1C [Example 85]: rule met

Textbook exercise: given the entry CCN1C(=O)N[C@@H](CCC(F)(F)F)COCCCOc2nc(cn3cnnc23)-c2cc(ncc2OC)[C@H]1C [Example 173] , state whether its pEC50 is greater than or equal to 8.
rule met

Determine whether measured pEC50 meets or exceeds 8 for CCN1C(=O)NCCCCCOc2nc(cn3ncnc23)-c2cc(ncc2OC)C1C(F)(F)F (centres unmarked) [Example 35]
rule not met

Dear colleague, could you confirm whether CCN1C(=O)NC(COC)CCCCCOc2nc(cn3ccnc23)-c2cc(ncc2OC)[C@H]1C (single isomer, unassigned) [Example 58A] has pEC50 at or above 8?
rule not met

---

Reported hOX2R_Ipone max %act is given for each of the following molecules.
Molecular target: hOX2R (Homo sapiens, UniProt O43614)
Construct: expressed in transfected cells; host or cells: CHO cells (G418 selection)
Sequence (O43614 1-444): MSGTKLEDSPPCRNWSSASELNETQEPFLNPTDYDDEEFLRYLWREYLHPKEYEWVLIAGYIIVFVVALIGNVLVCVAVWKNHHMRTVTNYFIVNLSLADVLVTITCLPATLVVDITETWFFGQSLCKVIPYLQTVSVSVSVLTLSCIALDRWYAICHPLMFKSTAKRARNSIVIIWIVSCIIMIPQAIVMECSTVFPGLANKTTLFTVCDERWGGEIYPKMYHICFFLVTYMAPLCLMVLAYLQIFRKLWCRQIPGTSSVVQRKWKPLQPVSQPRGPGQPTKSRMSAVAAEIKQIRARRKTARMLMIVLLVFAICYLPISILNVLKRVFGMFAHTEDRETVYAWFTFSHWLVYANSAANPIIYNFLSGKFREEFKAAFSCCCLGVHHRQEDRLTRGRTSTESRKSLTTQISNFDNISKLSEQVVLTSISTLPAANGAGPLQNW
Experiment: hOX2R IPone assay (orexin receptor agonism)
Format: cell-based
Details: maximal activation, IPone readout
Hi! Could you send only the number? It should be in %, unit omitted.

Reference set, count: 3
CCN1C(=O)N[C@@H](CCC(F)(F)F)CCCCCOc2nc(cn3ccnc23)-c2ccnc(c2)C1(C)C: 89.95
CCN1C(=O)N[C@@H](CCC(C)(F)F)COCCCOc2nc(cn3ncnc23)-c2cc(ncc2C)[C@H]1C: 107.8
CCN1C(=O)NC(CCC(F)F)CCCCCOc2nc(cn3ncnc23)-c2cc(ncc2C)[C@H]1C (stereo partly drawn): 101

Returns the measured hOX2R_Ipone max %act for the input molecule. Input: CCN1C(=O)N[C@@H](CCC(F)(F)F)CCCCOc2nc(cn3ccnc23)-c2ccnc(c2)[C@@H]1C [Example 29A]
99.5

State the recorded hOX2R_Ipone max %act for this entry: CCN1C(=O)NC(C(O)CC(F)(F)F)CCCCCOc2nc(cn3ncnc23)-c2cc(ncc2OC)C1C (single isomer, unassigned)
102.1

Looking for the measured hOX2R_Ipone max %act of CCN1CCCOc2nc(cn3ccnc23)-c2cccc(c2)[C@@H](C)N(CC)C(=O)NCC1 , can you help?
96.2

---

Target: hOX2R (Homo sapiens)
Construct: expressed in transfected cells; host or cells: CHO cells (G418 selection)
Sequence (O43614 1-444): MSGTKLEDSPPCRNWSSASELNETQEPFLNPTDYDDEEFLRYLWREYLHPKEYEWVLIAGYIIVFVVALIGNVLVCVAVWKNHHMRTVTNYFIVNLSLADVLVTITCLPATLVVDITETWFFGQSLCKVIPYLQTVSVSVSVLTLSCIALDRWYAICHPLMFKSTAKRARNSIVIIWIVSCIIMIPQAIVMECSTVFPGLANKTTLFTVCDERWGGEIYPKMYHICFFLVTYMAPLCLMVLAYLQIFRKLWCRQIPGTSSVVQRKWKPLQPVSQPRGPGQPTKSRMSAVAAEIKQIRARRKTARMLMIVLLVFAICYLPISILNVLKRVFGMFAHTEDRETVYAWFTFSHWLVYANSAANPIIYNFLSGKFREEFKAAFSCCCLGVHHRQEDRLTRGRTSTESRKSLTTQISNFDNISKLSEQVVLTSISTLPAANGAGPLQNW
Experiment: hOX2R IPone assay (orexin receptor agonism)
Format: cell-based
Details: orexin receptor agonist, IPone readout; read-out: hOX2R_IPone EC50
# log10 EC50 values compiled below
Annotation: log10 of EC50, nM basis.

CCN1C(=O)N[C@@H](CCC(C)(F)F)CCCCCOc2nc(cn3ccnc23)-c2ccnc(c2)[C@H]1C: 0.18
CCN1C(=O)NC(COCC(F)F)CCCCCOc2nc(cn3ccnc23)-c2cc(ncc2OC)[C@H]1C (mixture of isomers): -0.21
CCN1C(=O)N[C@@H](CCC(F)(F)F)CCCCCOc2nc(cn3ccnc23)C2=NC=C(S2)C1C (single isomer, unassigned) [Example 94A]: 2.22
CCN1C(=O)NC(CCC(F)(F)F)CCC(F)(F)CCOc2nc(cn3ccnc23)-c2cc(ncc2OC)[C@H]1C (single isomer, unassigned) [Example 121B]: -0.30
CCN1C(=O)N[C@@H](CCC(F)(F)F)CCCCOc2nc(cn3ccnc23)-c2ccnc(c2)[C@H]1C [Example 29B]: 0.65
CCN1C(=O)N[C@@H](CCC(F)(F)F)CCCCCOc2nc(nn3ccnc23)-c2ccnc(c2)[C@H]1C: 1.17
CCN1C(=O)NCCOCCCOc2nc(cn3ccnc23)-c2cccc(c2)[C@H]1C: 1.29
CCOCC1CCCCCOc2nc(cn3ccnc23)-c2cc(ncc2OC)[C@@H](C)N(CC)C(=O)N1 (single isomer, unassigned) [Example 62A]: 1.59
CCN1C(=O)NC(c2ncnn2C)CCCCCOc2nc(cn3ccnc23)-c2cc(ncc2OC)[C@H]1C (stereo partly drawn): 1.57
CCN1C(=O)NC(CC(C)(F)F)CCCCCOc2nc(nn3ccnc23)-c2cc(ncc2OC)[C@H]1C (stereo partly drawn): 0.63

Record lookup: for hOX2R (Homo sapiens), what log10 EC50 belongs to CCN1C(=O)N[C@@H](CCC(F)(F)F)CCCCCOc2nc(cc3cccnc23)-c2cc(ncc2OC)[C@H]1C ?
0.77

Provide the documented log10 EC50 with hOX2R (Homo sapiens) as the system for CCN1C(=O)NC(CCC(F)(F)F)C(C)/C=C\COc2nc(cn3ccnc23)-c2cccc(c2)[C@H]1C (single isomer, unassigned) [Example 41C]
1.37

// map CCN1C(=O)N[C@@H](CCC(F)(F)F)CCOCCOc2cc(cn3ncnc23)-c2cc(ncc2OC)[C@H]1C to recorded log10 EC50 (system: hOX2R (Homo sapiens))
0.39

Observed log10 EC50 on hOX2R (Homo sapiens) for CCN1C(=O)NC(CCC(F)(F)F)CC(C)CCOc2nc(cn3ccnc23)-c2cccc(c2)[C@H]1C (single isomer, unassigned) [Example 48A] , please.
0.61

What log10 EC50 appears in the records for this compound with hOX2R (Homo sapiens)? CCN1C(=O)N[C@@H](CCC(F)(F)F)CCOCCOc2nc(cn3ncnc23)-c2cc(ncc2OC)[C@H]1C
0.42

---

target: hOX2R (Homo sapiens); construct: expressed in transfected cells; host or cells: CHO cells (G418 selection); experiment: hOX2R IPone assay (orexin receptor agonism); format: cell-based; settings: maximal activation, IPone readout
Listed next: entries and their corresponding hOX2R_Ipone max %act.
# unit: % | format: bare number

// below: answered compounds
CCN1C(=O)NC(C(N)=O)CCCCCOc2nc(cn3ccnc23)-c2cc(ncc2F)[C@H]1C (stereo partly shown): 78.64
CCN1C(=O)NC(CC2CCOC2)CCCCCOc2nc(cn3ccnc23)-c2cc(ncc2OC)[C@H]1C (single isomer, unassigned) [Example 67A]: 99.8
CCN1C(=O)N[C@@H](C(F)(F)F)CCCCCOc2nc(cn3ccnc23)-c2cc(ncc2OC)[C@H]1C: 101.7
CCN1C(=O)NC(CC2CC2(F)F)CCCCCOc2nc(cn3ccnc23)-c2cc(ncc2OC)[C@H]1C (single isomer, unassigned) [Example 59B]: 100.1
CCN1C(=O)N[C@@H](CCC(F)(F)F)CCCCOc2nc(cn3ccnc23)-c2cc(cnc2OC)[C@H]1C: 101.1
CCN1C(=O)N[C@@H](CCC(F)(F)F)CCCCOc2nc(cn3ccnc23)-c2cccc(c2)[C@H]1C: 101

// lookup hOX2R_Ipone max %act | system=hOX2R (Homo sapiens) | key= CCN1C(=O)NC(CCC(F)(F)F)C(C)/C=C\COc2nc(cn3ccnc23)-c2cccc(c2)[C@H]1C (single isomer, unassigned) [Example 41A]
100.9

Recorded hOX2R_Ipone max %act for CCN1C(=O)N[C@@H](CCC(C)(F)F)CCOCCOc2nc(cn3ncnc23)-c2cc(ncc2C)[C@H]1C with hOX2R (Homo sapiens), please?
100.2

Provide the documented hOX2R_Ipone max %act with hOX2R (Homo sapiens) as the system for CCN1C(=O)N[C@@H](CCC(F)(F)F)CCC(O)CCOc2nc(cn3ccnc23)-c2cc(cnc2C)[C@H]1C (single isomer, unassigned)
100.7

For the record CCN1C(=O)NC(C2CC2)CCCCCOc2nc(cn3ccnc23)-c2cc(ncc2OC)[C@H]1C (single isomer, unassigned) [Example 57B] , what value of hOX2R_Ipone max %act is listed for hOX2R (Homo sapiens)?
101.6

Give the reported hOX2R_Ipone max %act for CCN1C(=O)N[C@@H](CCC(F)(F)F)CCCCCOc2nc(cn3ccnc23)C2=CN=C(O2)C1C (stereo partly shown) (system: hOX2R (Homo sapiens)).
100.6

Provide value of hOX2R_Ipone max %act for this record tested with hOX2R (Homo sapiens): CCN1C(=O)N[C@@H](CCC(F)(F)F)CCCCOCc2nc(cn3ccnc23)-c2cc(ncc2OC)[C@H]1C
101.4
